- system: Phospholipase D2 (Homo sapiens) + Phospholipase D2 (Homo sapiens) (UniProt O14939+O14939)
- Sequence (O14939 whole entry, looked up): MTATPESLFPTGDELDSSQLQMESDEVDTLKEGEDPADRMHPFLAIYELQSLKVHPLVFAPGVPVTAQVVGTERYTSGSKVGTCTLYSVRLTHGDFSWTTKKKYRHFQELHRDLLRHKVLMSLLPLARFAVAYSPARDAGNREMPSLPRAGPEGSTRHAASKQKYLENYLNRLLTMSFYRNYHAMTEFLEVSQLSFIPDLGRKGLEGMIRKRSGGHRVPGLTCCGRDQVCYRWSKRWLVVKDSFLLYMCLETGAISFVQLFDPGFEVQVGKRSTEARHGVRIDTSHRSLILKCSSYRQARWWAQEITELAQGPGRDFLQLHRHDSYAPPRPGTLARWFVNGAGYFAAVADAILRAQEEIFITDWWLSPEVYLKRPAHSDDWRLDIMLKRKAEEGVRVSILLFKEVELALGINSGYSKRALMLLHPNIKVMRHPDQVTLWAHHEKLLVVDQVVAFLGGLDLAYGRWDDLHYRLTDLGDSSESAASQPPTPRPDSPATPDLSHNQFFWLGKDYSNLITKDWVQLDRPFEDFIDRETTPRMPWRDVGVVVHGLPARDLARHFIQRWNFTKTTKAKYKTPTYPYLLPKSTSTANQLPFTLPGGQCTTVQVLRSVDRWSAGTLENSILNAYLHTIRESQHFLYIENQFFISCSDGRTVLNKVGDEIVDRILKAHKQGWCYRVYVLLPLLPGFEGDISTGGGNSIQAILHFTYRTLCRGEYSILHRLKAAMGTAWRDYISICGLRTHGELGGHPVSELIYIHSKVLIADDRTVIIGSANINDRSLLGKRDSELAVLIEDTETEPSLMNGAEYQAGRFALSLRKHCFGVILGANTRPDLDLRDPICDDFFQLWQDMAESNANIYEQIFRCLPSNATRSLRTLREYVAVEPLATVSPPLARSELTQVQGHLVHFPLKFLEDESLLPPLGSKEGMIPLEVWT
- Sequence (O14939 whole entry, looked up): as above
- protocol.summary: cellular PLD2 inhibitors, cell-based, HEK293 overexpressing PLD2, Lib32, assay 1B (AID 624009)
- test.context: HEK293 cells overexpressing PLD2, cellular PLD activity; concentration not given here
Calls of active or inactive are those of the source. No rule for the calls is given here.
Outcomes: TRUE for active, FALSE for inactive

> print(dat)
                           structure.string  assigned.label
1  C[C@@H](CN1CCC2(CC1)C(=O)NCN2c1cccc(F)c1)NC(=O)c1ccccc1I           FALSE
2  O=C(NCCN1CCC2(CC1)C(=O)NCN2c1cccc(F)c1)c1cccc(C(F)(F)F)c1           FALSE
3  C[C@@H](CN1CCC2(CC1)C(=O)NCN2c1cccc(F)c1)NC(=O)c1cccc(C(F)(F)F)c1           FALSE
4  C[C@@H](CN1CCC2(CC1)C(=O)NCN2c1cccc(F)c1)NC(=O)c1cccc(F)c1            TRUE
5  C[C@@H](CN1CCC2(CC1)C(=O)NCN2c1cccc(F)c1)NC(=O)c1c(F)cccc1F           FALSE
6  O=C(NCCN1CCC2(CC1)C(=O)NCN2c1cccc(F)c1)c1cccc2ccccc12           FALSE
7  COc1cc(C(=O)N[C@@H](C)CN2CCC3(CC2)C(=O)NCN3c2cccc(F)c2)cc(OC)c1OC            TRUE
8  C[C@@H](CN1CCC2(CC1)C(=O)NCN2c1cccc(F)c1)NC(=O)Cc1ccc(F)cc1           FALSE
9  O=C(NCCN1CCC2(CC1)C(=O)NCN2c1cccc(F)c1)c1ccc(Cl)cc1Cl           FALSE
